- Target Of Assay: human plasma renin activity (Homo sapiens)
- Construct: the human plasma contain and the substrate: angiotensinogen, and the enzyme: renin; from tissue; host or cells: pool of human plasma
- Sequence (P00797 67-406): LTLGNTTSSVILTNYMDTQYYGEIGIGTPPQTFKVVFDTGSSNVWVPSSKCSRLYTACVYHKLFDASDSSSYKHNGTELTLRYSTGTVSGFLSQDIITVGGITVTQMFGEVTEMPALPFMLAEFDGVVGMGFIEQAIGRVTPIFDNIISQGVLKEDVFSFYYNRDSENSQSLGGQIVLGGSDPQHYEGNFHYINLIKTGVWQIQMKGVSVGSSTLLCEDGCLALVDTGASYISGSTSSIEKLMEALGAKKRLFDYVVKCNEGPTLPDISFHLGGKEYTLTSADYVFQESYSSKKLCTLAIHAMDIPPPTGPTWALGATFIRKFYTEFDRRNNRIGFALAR
- Test Name: Inhibition of the human plasma renin activity (P.R.A.)
- Assay type: biochemical
- Measurement Conditions: pH 6, maleate buffer, incubation 30 minutes, 37° C., pool of human plasma; read-out: INHIBITION OF HUMAN P.R.A. (IC50) pH 6
- Description: The angiotensin I released during the reaction (the human plasma contain and the substrate: angiotensinogen, and the enzyme: renin) is measured by radioimmunological determination using a kit. Of course, an inhibitor of the enzyme for conversion of the PMSF (phenylmethylsulphonyl fluoride) is added to the incubation medium. Two types of experiments were carried out: one at pH 6, which is the optimum pH for the enzyme reaction with human renin (maleate buffer, incubation: 30 minutes), and […]
Non-standard residues stand in square brackets, D forms with d. Residues, ends and D or L forms follow the SMILES beside them. *: point of attachment. X1 = COC(=O)C[C@@H](O)[C@H](CC(C)C)N*; Benzenesulfonyl = O=S(=O)(c1ccccc1)*; Sta = CC(C)C[C@H](N)[C@@H](O)CC(=O)O; Isovaleryl = CC(C)CC(=O)*; Nva = CCC[C@H](N)C(=O)O; Cbz = O=C(OCc1ccccc1)*; Boc = CC(C)(C)OC(=O)*
Metric Name: log10 of IC50 (log10 of the value in nM)

{"Compound": "COC(=O)C[C@@H](O)[C@H](CC(C)C)NC(=O)[C@H](C)NC(=O)C[C@H](O)[C@H](CC(C)C)NC(=O)[C@H](Cc1ccccc1)NC(=O)[C@H](Cc1ccccc1)NC(=O)CC(C)C [SR 41766, iVa--Phe--Phe--Sta--Ala--isoSta--OMe] (Isovaleryl-FF[Sta]A-X1)", "log10 of IC50": 1.15}
{"Compound": "CC[C@H](C)[C@H](NC(=O)[C@H](Cc1ccccc1)NC(=O)OCc1ccccc1)C(=O)N[C@@H](CC(C)C)[C@@H](O)CC(=O)N[C@@H](C)C(=O)N[C@@H](CC(C)C)[C@@H](O)CC(=O)OC [SR 41477, Z--Phe--ILe--Sta--Ala--Sta--OMe] (Cbz-FI[Sta]A[Sta]-OMe)", "log10 of IC50": 1.54}
{"Compound": "COC(=O)C[C@H](O)[C@H](CC(C)C)NC(=O)[C@H](C)NC(=O)C[C@H](O)[C@H](CC(C)C)NC(=O)[C@@H](NC(=O)[C@H](Cc1c[nH]c2ccccc12)NC(=O)OCc1ccccc1)C(C)C [SR 41485, Z--Trp--Val--Sta--Ala--Sta--OMe] (Cbz-WV[Sta]A[Sta]-OMe)", "log10 of IC50": 0.83}
{"Compound": "COC(=O)C[C@H](O)[C@H](CC(C)C)NC(=O)[C@H](C)NC(=O)C[C@H](O)[C@H](CC(C)C)NC(=O)[C@H](Cc1c[nH]c2ccccc12)NC(=O)[C@H](Cc1ccccc1)NC(=O)OCc1ccccc1 [SR 41416, Z Phe--Trp--Sta--Ala--Sta--OMe] (Cbz-FW[Sta]A[Sta]-OMe)", "log10 of IC50": 1.90}
{"Compound": "CCC[C@H](NC(=O)[C@H](Cc1ccccc1)NC(=O)OC(C)(C)C)C(=O)N[C@@H](CC(C)C)[C@@H](O)CC(=O)N[C@@H](C)C(=O)N[C@@H](CC(C)C)[C@@H](O)CC(=O)OC [SR 41996, Boc--Phe--Nva--Sta--Ala--Sta--OMe] (Boc-F[Nva][Sta]A[Sta]-OMe)", "log10 of IC50": -2.96}
{"Compound": "COC(=O)C[C@H](O)[C@H](CC(C)C)NC(=O)[C@H](C)NC(=O)C[C@H](O)[C@H](CC(C)C)NC(=O)[C@H](Cc1ccccc1)NC(=O)[C@H](Cc1ccccc1)NS(=O)(=O)c1ccccc1 [SR 41938] (Benzenesulfonyl-FF[Sta]A[Sta]-OMe)", "log10 of IC50": 0.20}
{"Compound": "COC(=O)C[C@H](O)[C@H](CC(C)C)NC(=O)[C@H](C)NC(=O)C[C@H](O)[C@H](CC(C)C)NC(=O)[C@H](Cc1ccccc1)NC(=O)[C@H](Cc1ccccc1)NC(=O)OC(C)(C)C [SR 41331, Boc--Phe--Phe--Sta--Ala--Sta--OMe] (Boc-FF[Sta]A[Sta]-OMe)", "log10 of IC50": 0.54}

###

- Target Of Assay: human plasma renin activity (Homo sapiens)
- Construct: the human plasma contain and the substrate: angiotensinogen, and the enzyme: renin; from tissue; host or cells: pool of human plasma
- Test Name: Inhibition of the human plasma renin activity (P.R.A.)
- Type: biochemical
- Measurement Conditions: pH 7.4, phosphate buffer, incubation 60 minutes, 37° C., pool of human plasma; read-out: INHIBITION OF HUMAN P.R.A. (IC50) pH 7.4
pIC50: −log10 of the molar value. Non-standard residues stand in square brackets, D forms with d. Residues, ends and D or L forms follow the SMILES beside them. *: point of attachment. X1 = COC(=O)C[C@@H](O)[C@H](CC(C)C)N*; Sta = CC(C)C[C@H](N)[C@@H](O)CC(=O)O; Butanoyl(3,3-Me2) = CC(C)(C)CC(=O)*; Isovaleryl = CC(C)CC(=O)*; Cbz = O=C(OCc1ccccc1)*; Boc = CC(C)(C)OC(=O)*

{"Compound": "COC(=O)C[C@@H](O)[C@H](CC(C)C)NC(=O)[C@H](C)NC(=O)C[C@H](O)[C@H](CC(C)C)NC(=O)[C@H](Cc1ccccc1)NC(=O)[C@H](Cc1ccccc1)NC(=O)CC(C)C [SR 41766, iVa--Phe--Phe--Sta--Ala--isoSta--OMe] (Isovaleryl-FF[Sta]A-X1)", "Target Of Assay": "human plasma renin activity (Homo sapiens)", "pIC50": 6.38}
{"Compound": "COC(=O)C[C@H](O)[C@H](CC(C)C)NC(=O)[C@H](C)NC(=O)C[C@H](O)[C@H](CC(C)C)NC(=O)[C@H](Cc1ccccc1)NC(=O)[C@H](Cc1ccccc1)NC(=O)CC(C)(C)C [SR 42256, t--BuAc--Phe--Phe--Sta--Ala--Sta--OMe] ({Butanoyl(3,3-Me2)}-FF[Sta]A[Sta]-OMe)", "Target Of Assay": "human plasma renin activity (Homo sapiens)", "pIC50": 6.32}
{"Compound": "COC(=O)C[C@H](O)[C@H](CC(C)C)NC(=O)[C@H](C)NC(=O)C[C@H](O)[C@H](CC(C)C)NC(=O)[C@H](Cc1c[nH]c2ccccc12)NC(=O)[C@H](Cc1ccccc1)NC(=O)OCc1ccccc1 [SR 41416, Z Phe--Trp--Sta--Ala--Sta--OMe] (Cbz-FW[Sta]A[Sta]-OMe)", "Target Of Assay": "human plasma renin activity (Homo sapiens)", "pIC50": 5.85}
{"Compound": "CC(C)C[C@H](NC(=O)[C@H](C)NC(=O)C[C@H](O)[C@H](CC(C)C)NC(=O)[C@H](Cc1c[nH]cn1)NC(=O)[C@H](Cc1ccccc1)NC(=O)OC(C)(C)C)[C@@H](O)CC(=O)O [SR 41492, Boc--Phe--His--Sta--Ala--Sta--OH] (Boc-FH[Sta]A[Sta]-OH)", "Target Of Assay": "human plasma renin activity (Homo sapiens)", "pIC50": 7.35}

###

Measured IC50 on porcine pepsin (Sus scrofa, UniProt P00791) follows.
Sequence (P00791 60-385): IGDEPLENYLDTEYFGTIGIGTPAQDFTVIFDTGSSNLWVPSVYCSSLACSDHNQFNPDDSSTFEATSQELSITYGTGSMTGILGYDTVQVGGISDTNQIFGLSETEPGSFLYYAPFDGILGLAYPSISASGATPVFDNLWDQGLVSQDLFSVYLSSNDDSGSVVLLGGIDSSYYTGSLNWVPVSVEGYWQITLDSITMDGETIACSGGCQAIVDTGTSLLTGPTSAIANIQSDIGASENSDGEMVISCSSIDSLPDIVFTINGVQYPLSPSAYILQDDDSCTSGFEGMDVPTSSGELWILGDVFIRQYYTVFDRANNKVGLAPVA
Non-standard residues stand in square brackets, D forms with d. Residues, ends and D or L forms follow the SMILES beside them. *: point of attachment. Sta = CC(C)C[C@H](N)[C@@H](O)CC(=O)O; Butanoyl(3,3-Me2) = CC(C)(C)CC(=O)*; Cbz = O=C(OCc1ccccc1)*; Boc = CC(C)(C)OC(=O)*
Metric Name: IC50 (nM)

{"Compound": "COC(=O)C[C@H](O)[C@H](CC(C)C)NC(=O)[C@H](C)NC(=O)C[C@H](O)[C@H](CC(C)C)NC(=O)[C@H](Cc1ccccc1)NC(=O)[C@H](Cc1ccccc1)NC(=O)CC(C)(C)C [SR 42256, t--BuAc--Phe--Phe--Sta--Ala--Sta--OMe] ({Butanoyl(3,3-Me2)}-FF[Sta]A[Sta]-OMe)", "Reported Result": 27}
{"Compound": "COC(=O)C[C@H](O)[C@H](CC(C)C)NC(=O)[C@H](C)NC(=O)C[C@H](O)[C@H](CC(C)C)NC(=O)[C@H](Cc1ccccc1)NC(=O)[C@H](Cc1ccccc1)NC(=O)OC(C)(C)C [SR 41331, Boc--Phe--Phe--Sta--Ala--Sta--OMe] (Boc-FF[Sta]A[Sta]-OMe)", "Reported Result": 14}
{"Compound": "CC(C)C[C@H](NC(=O)[C@H](C)NC(=O)C[C@H](O)[C@H](CC(C)C)NC(=O)[C@@H](NC(=O)[C@@H](Cc1ccccc1)NC(=O)OC(C)(C)C)C(C)C)[C@@H](O)CC(=O)O [SR 41491, Boc--(D)Phe--Val--Sta--Ala--Sta--OH] (Boc-[dF]V[Sta]A[Sta]-OH)", "Reported Result": 22}
{"Compound": "COC(=O)C[C@H](O)[C@H](CC(C)C)NC(=O)[C@H](C)NC(=O)C[C@H](O)[C@H](CC(C)C)NC(=O)[C@H](Cc1ccccc1)NC(=O)[C@H](Cc1ccccc1)NC(=O)OCc1ccccc1 [SR 41320, Z--Phe--Phe--Sta--Ala--Sta--OMe] (Cbz-FF[Sta]A[Sta]-OMe)", "Reported Result": 30}
